# assayedTarget: UniProtKB Q13574
# test: DGKζ LIPGLO assay (extruded liposome substrate)
# Assay type: biochemical
# testSettings: extruded liposome substrate; read-out: DGKζ LIPGLO IC50
pIC50: −log10 of the molar value.
Entry flag: class 1 if pIC50 reaches 5; class 0 if it does not.

>>> df
                                   molecule    label
0  C#CCn1c(=O)c(C#N)c(N2CCN(Cc3ccccc3O)CC2)c2nc(Br)ccc21  class 1
1  C=CCOc1cc(F)ccc1C(C)N1CCN(c2c(C#N)c(=O)n(C)c3ccc(Cl)nc23)CC1 (stereo not drawn)  class 0
2  Cn1c(=O)c(C#N)c(N2CCN(Cc3ccc(Cl)cc3O)CC2)c2nc(Cl)ccc21  class 1
3  Cn1c(=O)c(C#N)c(N2CCN(C(c3ccccc3)c3ccccc3)CC2)c2ncccc21  class 0
4  COc1ccc(CN2CCN(c3c(C#N)c(=O)n(C)c4ccc(Cl)nc34)CC2)cc1F  class 1
5  Cn1c(=O)c(C#N)c(N2CCN(C(c3ccccc3)c3ccccc3O)CC2)c2ncccc21 (stereo not drawn)  class 0
6  Cn1c(=O)c(C#N)c(N2CCN(Cc3cccc(F)c3O)CC2)c2nc(Br)ccc21  class 1
7  C#CCn1c(=O)c([N+](=O)[O-])c(N2CCN(C(c3ccc(F)cc3)c3ccc(F)cc3O)CC2)c2nc(C#N)ccc21 (single isomer, unassigned)  class 1

====

Recorded pIC50 for the following molecules
# assayedTarget: human DGKα (Homo sapiens (Human), UniProt P23743)
# Sequence (P23743 other isoform, or with tags, fused parts or gaps): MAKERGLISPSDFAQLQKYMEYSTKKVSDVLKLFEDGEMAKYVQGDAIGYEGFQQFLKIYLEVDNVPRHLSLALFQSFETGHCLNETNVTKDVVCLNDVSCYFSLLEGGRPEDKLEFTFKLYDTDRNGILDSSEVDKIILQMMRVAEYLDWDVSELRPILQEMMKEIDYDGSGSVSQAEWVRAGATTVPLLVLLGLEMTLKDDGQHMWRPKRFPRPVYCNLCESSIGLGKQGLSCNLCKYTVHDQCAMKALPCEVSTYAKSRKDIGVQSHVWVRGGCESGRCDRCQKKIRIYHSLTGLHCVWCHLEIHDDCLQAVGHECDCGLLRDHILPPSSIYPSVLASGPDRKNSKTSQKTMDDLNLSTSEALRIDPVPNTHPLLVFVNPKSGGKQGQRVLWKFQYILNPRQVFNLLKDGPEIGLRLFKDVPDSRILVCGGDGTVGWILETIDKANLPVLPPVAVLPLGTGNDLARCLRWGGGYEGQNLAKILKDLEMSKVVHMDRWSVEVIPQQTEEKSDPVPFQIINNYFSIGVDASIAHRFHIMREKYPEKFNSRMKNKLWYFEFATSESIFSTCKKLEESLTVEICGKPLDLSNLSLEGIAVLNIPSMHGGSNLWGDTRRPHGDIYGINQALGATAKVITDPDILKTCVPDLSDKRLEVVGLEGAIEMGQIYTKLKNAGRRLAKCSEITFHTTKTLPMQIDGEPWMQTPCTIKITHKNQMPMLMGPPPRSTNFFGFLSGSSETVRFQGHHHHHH
# test: biochemical
# testSettings: detergent/lipid micelle substrate; read-out: DGKα IC50
pIC50: −log10 of the molar value.
readoutKind: pIC50

molecule	assayedTarget	testValue
Cn1c(=O)c(C#N)c(N2CCN(Cc3cccc4cc[nH]c34)CC2)c2nc(Cl)ccc21	human DGKα (Homo sapiens (Human), UniProt P23743)	6.05
C#CCn1c(=O)c([N+](=O)[O-])c(N2CCN(C(c3ccc(F)cc3)c3ccc(F)cc3O)CC2)c2nc(C#N)ccc21 (single isomer, unassigned) [Example 121]	human DGKα (Homo sapiens (Human), UniProt P23743)	5.72
Cn1c(=O)c(C#N)c(N2CCN(Cc3ccc(Br)cc3O)CC2)c2nc(Cl)ccc21	human DGKα (Homo sapiens (Human), UniProt P23743)	7.92
Cn1c(=O)c([N+](=O)[O-])c(N2CCN(C(c3ccc(F)cc3)c3ccccc3O)CC2)c2nc(Br)ccc21 (stereo not shown)	human DGKα (Homo sapiens (Human), UniProt P23743)	6.89
Cc1ccc2c(n1)c(N1CCN(C(C)c3ccc(F)cc3)CC1)c(Br)c(=O)n2C (stereo not shown)	human DGKα (Homo sapiens (Human), UniProt P23743)	6.27
N#CCn1c(=O)c([N+](=O)[O-])c(N2CCN(C(c3ccc(F)cc3)c3ccc(F)cc3)CC2)c2nc(C#N)ccc21	human DGKα (Homo sapiens (Human), UniProt P23743)	3.82
Cn1c(=O)c(C#N)c(N2CCN(Cc3c(O)cccc3Cl)CC2)c2nc(Br)ccc21	human DGKα (Homo sapiens (Human), UniProt P23743)	6.06

====

# assayedTarget: human DGKα (Homo sapiens (Human))
# test: biochemical
# testSettings: detergent/lipid micelle substrate; read-out: DGKα IC50

compound	IC50
C#CCn1c(=O)c(C#N)c(N2CCN(C(c3ccc(F)cc3)c3ccccc3O)CC2)c2nc(Br)ccc21 (single isomer, unassigned) [Example 106]	960 nM
Cn1c(=O)c(C#N)c(N2CCN(Cc3ccc(Cl)cc3O)CC2)c2nc(Cl)ccc21	37 nM
Cn1c(=O)c(C#N)c(N2CCN(Cc3cccc4cc[nH]c34)CC2)c2nc(Br)ccc21	2500 nM
Cc1ccc2c(n1)c(N1CCN(C(c3ccc(F)cc3)c3ccc(F)cc3)CC1)cc(=O)n2C	150000 nM
CCC(c1ccc(F)cc1)N1CCN(c2c([N+](=O)[O-])c(=O)n(C)c3ccc(C#N)nc23)CC1 (single isomer, unassigned) [Example 34]	180 nM
Cn1c(=O)c(C#N)c(N2CCN(Cc3cccc(Cl)c3O)CC2)c2nc(Br)ccc21	350 nM
COc1cccc(C)c1C(c1ccc(F)cc1)N1CCN(c2c([N+](=O)[O-])c(=O)n(C)c3ccc(Br)nc23)CC1 (single isomer, unassigned) [Example 61]	4400 nM
CCn1ccc2c(CN3CCN(c4c(C#N)c(=O)n(C)c5ccc(Br)nc45)CC3)cccc21	390 nM
C#CCn1c(=O)c([N+](=O)[O-])c(N2CCN(C(C)c3ccc(F)cc3)CC2)c2nc(C#N)ccc21 (single isomer, unassigned) [Example 137]	280 nM
COc1ccccc1C(c1ccc(F)cc1)N1CCN(c2c(C#N)c(=O)n(CC3CC3)c3ccc(Br)nc23)CC1 (single isomer, unassigned) [Example 159]	120000 nM
C#CCn1c(=O)c([N+](=O)[O-])c(N2CCN(C(c3ccc(F)cc3)c3ccc(F)cc3OC)CC2)c2nc(C#N)ccc21 (single isomer, unassigned) [Example 128]	21000 nM
COc1ccccc1C(c1ccc(F)cc1)N1CCN(c2c(C#N)c(=O)n(C)c3ccc(Br)nc23)CC1 (single isomer, unassigned) [Example 13]	9500 nM
Cn1c(=O)c(C#N)c(N2CCN(Cc3ccc(F)cc3Cl)CC2)c2nc(Cl)ccc21	2100 nM
C#CCn1c(=O)c(C#N)c(N2CCN(Cc3ccc(F)cc3O)CC2)c2nc(Br)ccc21	130 nM
CCC(c1ccc(F)cc1)N1CCN(c2c([N+](=O)[O-])c(=O)n(C)c3ccc(C#N)nc23)CC1 (racemic) [Example 32]	190 nM

====

Recorded IC50 for the following molecules
# assayedTarget: human DGKα (Homo sapiens (Human))
# test: DGKα LIPGLO assay (extruded liposome substrate)
# Assay type: biochemical
readoutKind: IC50 (nM)

                                   molecule  readoutkind  measurementunits  testvalue
0  Cn1c(=O)c(C#N)c(N2CCN(Cc3ccc(F)cc3O)CC2)c2nc(Br)ccc21 [Example 192]         IC50                nM         48
1  CCC(c1ccc(F)cc1)N1CCN(c2c([N+](=O)[O-])c(=O)n(C)c3ccc(C#N)nc23)CC1 (single isomer, unassigned) [Example 33]         IC50                nM       1700
2  Cc1ccc2c(n1)c(N1CCN(C(c3ccc(F)cc3)C3CC3)CC1)c(C#N)c(=O)n2C (centres unmarked) [Example 250]         IC50                nM       5100
3  COc1ccc2c(n1)c(N1CCN(C(c3ccc(F)cc3)c3ncccc3OC)CC1)c(C#N)c(=O)n2C (centres unmarked) [Example 397]         IC50                nM      16000
4  CCn1ccc2c(CN3CCN(c4c([N+](=O)[O-])c(=O)n(C)c5ccc(Br)nc45)CC3)cccc21 [Example 54]         IC50                nM       3100
5  Cn1c(=O)c([N+](=O)[O-])c(N2CCN(Cc3cccc4ccccc34)CC2)c2nc(Br)ccc21 [Example 55]         IC50                nM        190
6  Cc1ccc2c(n1)c(N1CCN(Cc3ccc(F)cc3O)CC1)c(C#N)c(=O)n2C [Example 194]         IC50                nM        180
7  Cc1ccc2c(n1)c(N1CCN(Cc3cccc(Cl)c3O)CC1)c(C#N)c(=O)n2C [Example 389]         IC50                nM       1400

====

# assayedTarget: human DGKζ (Homo sapiens (Human), UniProt Q13574)
# Sequence (Q13574 other isoform, or with tags, fused parts or gaps): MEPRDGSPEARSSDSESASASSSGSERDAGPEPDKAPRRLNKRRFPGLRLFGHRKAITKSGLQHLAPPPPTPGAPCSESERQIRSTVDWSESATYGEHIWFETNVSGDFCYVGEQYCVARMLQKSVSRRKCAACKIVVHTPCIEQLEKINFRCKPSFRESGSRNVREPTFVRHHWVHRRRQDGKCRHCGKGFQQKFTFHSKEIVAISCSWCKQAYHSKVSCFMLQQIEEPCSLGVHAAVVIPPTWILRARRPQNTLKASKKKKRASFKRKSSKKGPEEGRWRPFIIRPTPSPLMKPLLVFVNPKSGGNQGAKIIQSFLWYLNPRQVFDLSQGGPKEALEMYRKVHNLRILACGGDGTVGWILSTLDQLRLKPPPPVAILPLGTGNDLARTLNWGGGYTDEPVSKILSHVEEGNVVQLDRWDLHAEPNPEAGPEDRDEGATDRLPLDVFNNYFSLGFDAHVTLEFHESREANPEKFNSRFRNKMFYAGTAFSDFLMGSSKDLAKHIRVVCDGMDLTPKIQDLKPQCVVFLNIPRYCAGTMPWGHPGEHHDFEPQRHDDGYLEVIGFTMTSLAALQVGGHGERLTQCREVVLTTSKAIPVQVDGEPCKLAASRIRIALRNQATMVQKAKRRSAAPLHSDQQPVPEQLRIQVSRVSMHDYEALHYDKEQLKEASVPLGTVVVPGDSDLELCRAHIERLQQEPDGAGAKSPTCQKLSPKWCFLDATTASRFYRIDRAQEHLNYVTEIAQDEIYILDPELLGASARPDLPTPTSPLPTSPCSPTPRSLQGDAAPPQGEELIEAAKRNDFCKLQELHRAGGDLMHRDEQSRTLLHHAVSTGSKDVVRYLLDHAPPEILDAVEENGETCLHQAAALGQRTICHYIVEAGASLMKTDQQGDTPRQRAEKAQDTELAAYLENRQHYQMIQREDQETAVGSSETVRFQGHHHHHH
# test: DGKζ LIPGLO assay (extruded liposome substrate)
# Format: biochemical
# testSettings: extruded liposome substrate; read-out: DGKζ LIPGLO IC50
pIC50: −log10 of the molar value.
Entry flag: y if pIC50 reaches 5; n if it does not.

>>> print(df.to_string())
                                   molecule                             assayedtarget  label
0  Cc1ccc(CN2CCN(c3c(C#N)c(=O)n(C)c4ccc(Cl)nc34)CC2)cc1  human DGKζ (Homo sapiens (Human), UniProt Q13574)      y
1  Cn1c(=O)c(C#N)c(N2CCN(C(c3ccc(F)cc3)C3CCC3)CC2)c2nc(Cl)ccc21 (single isomer, unassigned) [Example 382]  human DGKζ (Homo sapiens (Human), UniProt Q13574)      n
2  CC(c1ccc(F)cc1)N1CCN(c2c(C#N)c(=O)n(CC#N)c3ccc(Br)nc23)CC1 (stereo not drawn)  human DGKζ (Homo sapiens (Human), UniProt Q13574)      n
